Source of measurements: PubChem BioAssay AID1963869

Reported viability, T/C values are given for each entry in this list.
Test system: KRAS patient-derived spheroids with HUVEC/MSC, viability
METHOD DESCRIPTION: Anticancer human tumor 323965-272-R-J2-PDC patient-derived pancreatic carcinoma cell line growth inhibition [KRAS2]
CONDITION SET: second compound 3.16 µM; first compound 0.001 µM; stronger effect = lower value

[
  {
    "MOLECULE": "Cn1ncnc1[C@H]1c2n[nH]c(=O)c3cc(F)cc(c23)N[C@@H]1c1ccc(F)cc1 + C=CC(=O)N1CCN(c2nc(OCC3CCCN3C)nc3c2CCN(c2cccc4cccc(C)c24)C3)CC1CC#N",
    "viability, T/C, %": 10.9
  },
  {
    "MOLECULE": "Cn1ncnc1[C@H]1c2n[nH]c(=O)c3cc(F)cc(c23)N[C@@H]1c1ccc(F)cc1 + COc1cc2nc(C)nc(NC(C)c3cc(N)cc(C(F)(F)F)c3)c2cc1OC1CCOC1",
    "viability, T/C, %": 71.6
  },
  {
    "MOLECULE": "CN(C)C/C=C/C(=O)Nc1cc2c(Nc3ccc(F)c(Cl)c3)ncnc2cc1O[C@H]1CCOC1 + CNCc1ccccc1-c1csc(C(C)Nc2nc(C)nc3cc(OC)c(OC)cc23)c1",
    "viability, T/C, %": 63.7
  },
  {
    "MOLECULE": "CC(=O)Nc1cccc(-n2c(=O)n(C3CC3)c(=O)c3c(Nc4ccc(I)cc4F)n(C)c(=O)c(C)c32)c1 + C=CC(=O)N1CCN(c2nc(=O)n(-c3c(C)ccnc3C(C)C)c3nc(-c4c(O)cccc4F)c(F)cc23)C(C)C1",
    "viability, T/C, %": 51.4
  },
  {
    "MOLECULE": "CN(C)C/C=C/C(=O)Nc1cc2c(Nc3ccc(F)c(Cl)c3)ncnc2cc1O[C@H]1CCOC1 + COc1cc2nc(C)nc(NC(C)c3cc(N)cc(C(F)(F)F)c3)c2cc1OC1CCOC1",
    "viability, T/C, %": 71.7
  },
  {
    "MOLECULE": "CC(=O)Nc1cccc(-n2c(=O)n(C3CC3)c(=O)c3c(Nc4ccc(I)cc4F)n(C)c(=O)c(C)c32)c1 + COc1cc2nc(C)nc(NC(C)c3cc(N)cc(C(F)(F)F)c3)c2cc1OC1CCOC1",
    "viability, T/C, %": 44.6
  },
  {
    "MOLECULE": "CN(C)C/C=C/C(=O)Nc1cc2c(Nc3ccc(F)c(Cl)c3)ncnc2cc1O[C@H]1CCOC1 + C=CC(=O)N1CCN(c2nc(=O)n(-c3c(C)ccnc3C(C)C)c3nc(-c4c(O)cccc4F)c(F)cc23)C(C)C1",
    "viability, T/C, %": 58
  },
  {
    "MOLECULE": "CN(C)C/C=C/C(=O)Nc1cc2c(Nc3ccc(F)c(Cl)c3)ncnc2cc1O[C@H]1CCOC1 + CC1OCC2(CCN(c3cnc(Sc4ccnc(N)c4Cl)c(N)n3)CC2)C1N",
    "viability, T/C, %": 33
  }
]

* * *

Reported viability, T/C values are given for each entry in this list.
Tested on: KRAS patient-derived spheroids with HUVEC/MSC, viability
METHOD DESCRIPTION: Anticancer human tumor 323965-272-R-J2-PDC cell line growth inhibition [KRAS2];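 also: spheroids exposed to agents for 7 days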;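 as to viability, T/C: 100% = DMSO vehicle control viability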
CONDITION SET: second compound 1 µM; first compound 0.1 µM; stronger effect = lower value
MEASUREMENT NAME: viability, T/C

[
  {
    "COMPOUND": "Cn1ncnc1[C@H]1c2n[nH]c(=O)c3cc(F)cc(c23)N[C@@H]1c1ccc(F)cc1 + C=CC(=O)N1CCN(c2nc(=O)n(-c3c(C)ccnc3C(C)C)c3nc(-c4c(O)cccc4F)c(F)cc23)C(C)C1",
    "REPORTED RESULT": "57%"
  },
  {
    "COMPOUND": "CC1COCCN1c1cc(-c2ccnn2C)c2ccnc(-c3ccn[nH]3)c2n1 (stereo not drawn) + C=CC(=O)N1CCN(c2nc(OCC3CCCN3C)nc3c2CCN(c2cccc4cccc(C)c24)C3)CC1CC#N",
    "REPORTED RESULT": "10.8%"
  },
  {
    "COMPOUND": "COc1cc2nccc(Oc3ccc(NC(=O)C4(C(=O)Nc5ccc(F)cc5)CC4)cc3)c2cc1OC + COc1cc2nc(C)nc(NC(C)c3cc(N)cc(C(F)(F)F)c3)c2cc1OC1CCOC1",
    "REPORTED RESULT": "79.8%"
  },
  {
    "COMPOUND": "CC1OCC2(CCN(c3cnc(Sc4ccnc(N)c4Cl)c(N)n3)CC2)C1N (stereo not drawn) + C=CC(=O)N1CCN(c2nc(=O)n(-c3c(C)ccnc3C(C)C)c3nc(-c4c(O)cccc4F)c(F)cc23)C(C)C1",
    "REPORTED RESULT": "30.2%"
  },
  {
    "COMPOUND": "COc1cc(Nc2ncc3c(n2)-c2ccc(Cl)cc2C(c2c(F)cccc2OC)=NC3)ccc1C(=O)O + C=CC(=O)N1CCN(c2nc(=O)n(-c3c(C)ccnc3C(C)C)c3nc(-c4c(O)cccc4F)c(F)cc23)C(C)C1",
    "REPORTED RESULT": "34%"
  },
  {
    "COMPOUND": "CCNC(=O)CC1N=C(c2ccc(Cl)cc2)c2cc(OC)ccc2-n2c(C)nnc21 (stereo not drawn) + C=CC(=O)N1CCN(c2nc(OCC3CCCN3C)nc3c2CCN(c2cccc4cccc(C)c24)C3)CC1CC#N",
    "REPORTED RESULT": "50.6%"
  },
  {
    "COMPOUND": "O=C(c1cc(Cc2n[nH]c(=O)c3ccccc23)ccc1F)N1CCN(C(=O)C2CC2)CC1 + CNCc1ccccc1-c1csc(C(C)Nc2nc(C)nc3cc(OC)c(OC)cc23)c1",
    "REPORTED RESULT": "93.5%"
  },
  {
    "COMPOUND": "COC(=O)c1ccc2c(C(=Nc3ccc(N(C)C(=O)CN4CCN(C)CC4)cc3)c3ccccc3)c(O)[nH]c2c1 + CC1OCC2(CCN(c3cnc(Sc4ccnc(N)c4Cl)c(N)n3)CC2)C1N",
    "REPORTED RESULT": "47.9%"
  }
]

* * *

Tested on: KRAS patient-derived spheroids with HUVEC/MSC, viability
METHOD DESCRIPTION: Anticancer human tumor 323965-272-R-J2-PDC cell line growth inhibition [KRAS2];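 also: spheroids exposed to agents for 7 days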
CONDITION SET: curve of first compound; second compound 1 µM
pIC50: −log10 of the molar value.

[
  {
    "MOLECULE": "COc1cc(Nc2ncc3c(n2)-c2ccc(Cl)cc2C(c2c(F)cccc2OC)=NC3)ccc1C(=O)O + CC1OCC2(CCN(c3cnc(Sc4ccnc(N)c4Cl)c(N)n3)CC2)C1N",
    "pIC50": "> 7.50"
  },
  {
    "MOLECULE": "CC1OCC2(CCN(c3cnc(Sc4ccnc(N)c4Cl)c(N)n3)CC2)C1N (stereo not drawn) + COc1cc2nc(C)nc(NC(C)c3cc(N)cc(C(F)(F)F)c3)c2cc1OC1CCOC1",
    "pIC50": "> 7.50"
  },
  {
    "MOLECULE": "CCNC(=O)CC1N=C(c2ccc(Cl)cc2)c2cc(OC)ccc2-n2c(C)nnc21 (stereo not drawn) + CC1OCC2(CCN(c3cnc(Sc4ccnc(N)c4Cl)c(N)n3)CC2)C1N",
    "pIC50": "> 7.50"
  }
]

* * *

Reported viability, T/C values are given for each entry in this list.
System: KRAS patient-derived spheroids with HUVEC/MSC, viability
METHOD DESCRIPTION: Anticancer human tumor 323965-272-R-J2-PDC cell line growth inhibition [KRAS2];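 also: spheroids exposed to agents for 7 days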;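 as to viability, T/C: 100% = DMSO vehicle control viability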
CONDITION SET: second compound 0.1 µM; first compound 0.316 µM; stronger effect = lower value

[
  {
    "COMPOUND": "COc1cc(Nc2ncc3c(n2)-c2ccc(Cl)cc2C(c2c(F)cccc2OC)=NC3)ccc1C(=O)O + C=CC(=O)N1CCN(c2nc(=O)n(-c3c(C)ccnc3C(C)C)c3nc(-c4c(O)cccc4F)c(F)cc23)C(C)C1",
    "viability, T/C (%)": 26.4
  },
  {
    "COMPOUND": "COc1cc(Nc2ncc3c(n2)-c2ccc(Cl)cc2C(c2c(F)cccc2OC)=NC3)ccc1C(=O)O + CNCc1ccccc1-c1csc(C(C)Nc2nc(C)nc3cc(OC)c(OC)cc23)c1",
    "viability, T/C (%)": 32
  },
  {
    "COMPOUND": "O=C(c1cc(Cc2n[nH]c(=O)c3ccccc23)ccc1F)N1CCN(C(=O)C2CC2)CC1 + CNCc1ccccc1-c1csc(C(C)Nc2nc(C)nc3cc(OC)c(OC)cc23)c1",
    "viability, T/C (%)": 97.8
  },
  {
    "COMPOUND": "CC(=O)OC12COC1CC(O)C1(C)C(=O)C(O)C3=C(C)C(OC(=O)C(O)C(NC(=O)OC(C)(C)C)c4ccccc4)CC(O)(C(OC(=O)c4ccccc4)C21)C3(C)C (stereo not given) + C=CC(=O)N1CCN(c2nc(OCC3CCCN3C)nc3c2CCN(c2cccc4cccc(C)c24)C3)CC1CC#N",
    "viability, T/C (%)": 20.7
  },
  {
    "COMPOUND": "CC1(C)CCC(CN2CCN(c3ccc(C(=O)NS(=O)(=O)c4ccc(NCC5CCOCC5)c([N+](=O)[O-])c4)c(Oc4cnc5[nH]ccc5c4)c3)CC2)=C(c2ccc(Cl)cc2)C1 + C=CC(=O)N1CCN(c2nc(=O)n(-c3c(C)ccnc3C(C)C)c3nc(-c4c(O)cccc4F)c(F)cc23)C(C)C1",
    "viability, T/C (%)": 63.3
  }
]
